# Target under test: T1, human IL-17A (construct not specified) (human, UniProt Q16552 24-155, limits assumed)
# T1 construct: also called huIL-17A
# T1 sequence: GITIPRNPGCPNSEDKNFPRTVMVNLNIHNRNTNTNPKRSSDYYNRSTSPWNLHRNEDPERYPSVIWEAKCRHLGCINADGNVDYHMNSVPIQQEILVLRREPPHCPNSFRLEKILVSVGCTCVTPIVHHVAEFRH
# Method: ELISA, coated huIL-17A, then 200 nM XAB1 Fab as competitor
Endpoint: Competition ELISA (normalized to XAB1 Fab) (fold)
Lab book: enter the figure in fold, no units written.

Example results:
Q: Reported Competition ELISA (normalized to XAB1 Fab), binder MB483 (Fab, V domains shown, Fab variant of XAB1) VH: EVQLVESGGDLVQPGGSLRLSCAASGFTFSSYWMSWVRQAPGKGLEWVANIKQDGSEKYYVDSVKGRFTISRDNAKNSLYLQMNSLRAEDTAVYYCARDRGSLYYWGQGTLVTVSS VL: AIQLTQSPSSLSASVGDRVTITCRPSQGIFWTLAWYQQKPGKAPKLLIYDASSLENGVPSRFSGSGSGTDFTLTISSLQPEDFATYYCQQFNSYPLTFGGGTKVEIK : ____
A: 45.2

Q: Reported Competition ELISA (normalized to XAB1 Fab), binder MB438 (Fab, V domains shown, Fab variant of XAB1) VH: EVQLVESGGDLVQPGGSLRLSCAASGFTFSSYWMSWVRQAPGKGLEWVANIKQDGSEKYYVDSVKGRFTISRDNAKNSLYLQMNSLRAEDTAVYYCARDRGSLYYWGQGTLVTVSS VL: AIQLTQSPSSLSASVGDRVTITCRPSQGIPYALAWYQQKPGKAPKLLIYDASSLENGVPSRFSGSGSGTDFTLTISSLQPEDFATYYCQQFNSYPLTFGGGTKVEIK : ____
A: 41.1

Q: Reported Competition ELISA (normalized to XAB1 Fab), binder MB447 (Fab, V domains shown, Fab variant of XAB1) VH: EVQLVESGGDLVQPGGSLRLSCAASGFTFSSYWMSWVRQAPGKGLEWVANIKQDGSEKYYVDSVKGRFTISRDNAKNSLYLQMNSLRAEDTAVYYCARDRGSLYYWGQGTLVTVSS VL: AIQLTQSPSSLSASVGDRVTITCRPSQGIFWWLAWYQQKPGKAPKLLIYDASSLENGVPSRFSGSGSGTDFTLTISSLQPEDFATYYCQQFNSYPLTFGGGTKVEIK : ____
A: 57

Alright, here's another binder for you.
Q: Reported Competition ELISA (normalized to XAB1 Fab), binder MB434 (Fab, V domains shown, Fab variant of XAB1) VH: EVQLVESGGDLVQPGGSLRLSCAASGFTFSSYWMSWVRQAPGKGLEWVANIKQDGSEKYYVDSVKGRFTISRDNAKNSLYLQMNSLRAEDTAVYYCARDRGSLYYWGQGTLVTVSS VL: AIQLTQSPSSLSASVGDRVTITCRPSQGIWWYLAWYQQKPGKAPKLLIYDASSLENGVPSRFSGSGSGTDFTLTISSLQPEDFATYYCQQFNSYPLTFGGGTKVEIK : ____
A: 39.5
